This collection of values is drawn from ChEMBL document CHEMBL1137618.

biological target: Neuronal acetylcholine receptor; alpha3/beta4 (Homo sapiens, UniProt P30926+P32297); assay: Agonist activity at recombinant human alpha-3-beta-4 nAChR expressed in HEK293 cells assessed as induction of calcium influx by FLIPR assay; assay type: functional, cell-based; settings: read-out: EC50
Sequence (P30926 whole entry): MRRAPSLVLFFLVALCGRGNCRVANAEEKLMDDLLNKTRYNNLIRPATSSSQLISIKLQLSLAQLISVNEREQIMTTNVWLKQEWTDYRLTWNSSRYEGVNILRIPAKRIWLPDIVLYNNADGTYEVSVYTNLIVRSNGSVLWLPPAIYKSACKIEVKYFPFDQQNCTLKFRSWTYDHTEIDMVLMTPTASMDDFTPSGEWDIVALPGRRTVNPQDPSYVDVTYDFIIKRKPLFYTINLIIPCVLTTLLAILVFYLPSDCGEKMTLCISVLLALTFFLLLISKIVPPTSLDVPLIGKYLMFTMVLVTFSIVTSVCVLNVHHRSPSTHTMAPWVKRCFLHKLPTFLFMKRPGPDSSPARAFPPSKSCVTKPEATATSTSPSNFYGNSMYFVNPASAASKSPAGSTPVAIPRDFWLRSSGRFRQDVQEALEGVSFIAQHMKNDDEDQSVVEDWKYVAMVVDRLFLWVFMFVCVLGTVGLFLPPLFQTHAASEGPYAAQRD
Sequence (P32297 whole entry): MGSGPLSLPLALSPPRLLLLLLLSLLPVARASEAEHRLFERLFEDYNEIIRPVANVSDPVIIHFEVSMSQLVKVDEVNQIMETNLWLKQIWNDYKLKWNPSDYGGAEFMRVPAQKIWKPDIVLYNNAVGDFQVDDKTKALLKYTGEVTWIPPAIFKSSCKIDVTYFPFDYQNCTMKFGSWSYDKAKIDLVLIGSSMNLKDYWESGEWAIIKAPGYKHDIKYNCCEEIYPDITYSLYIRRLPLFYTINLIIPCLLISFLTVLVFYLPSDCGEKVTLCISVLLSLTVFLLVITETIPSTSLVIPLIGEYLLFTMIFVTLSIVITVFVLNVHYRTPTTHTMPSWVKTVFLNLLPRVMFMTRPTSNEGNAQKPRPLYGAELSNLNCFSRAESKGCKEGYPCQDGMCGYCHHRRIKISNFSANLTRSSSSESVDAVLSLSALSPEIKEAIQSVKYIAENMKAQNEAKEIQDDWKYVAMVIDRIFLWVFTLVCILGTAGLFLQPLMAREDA
Here, each record is paired with measured EC50 data.
Please reply with the bare figure in µM and do not write the unit itself.

# COMPOUND STRUCTURE, EC50 / µM
measured = [
    ("COc1cncc(N2C[C@@H]3CN[C@@H]3C2)c1", 48.1),
    ("C#Cc1cncc(N2C[C@H]3CNC[C@H]32)c1", 86.9),
]

Okay, next one:
# get_value(readout='EC50', item= `c1cncc(N2C[C@H]3CN[C@H]3C2)c1` )
6

* * *

biological target: Neuronal acetylcholine receptor; alpha4/beta2 (Homo sapiens, UniProt P17787+P43681); assay: Agonist activity at recombinant human alpha-4-beta-2 nAChR expressed in HEK293 cells assessed as induction of calcium influx by FLIPR assay relative to nicotine; type: functional, cell-based
Sequence (P17787 whole entry): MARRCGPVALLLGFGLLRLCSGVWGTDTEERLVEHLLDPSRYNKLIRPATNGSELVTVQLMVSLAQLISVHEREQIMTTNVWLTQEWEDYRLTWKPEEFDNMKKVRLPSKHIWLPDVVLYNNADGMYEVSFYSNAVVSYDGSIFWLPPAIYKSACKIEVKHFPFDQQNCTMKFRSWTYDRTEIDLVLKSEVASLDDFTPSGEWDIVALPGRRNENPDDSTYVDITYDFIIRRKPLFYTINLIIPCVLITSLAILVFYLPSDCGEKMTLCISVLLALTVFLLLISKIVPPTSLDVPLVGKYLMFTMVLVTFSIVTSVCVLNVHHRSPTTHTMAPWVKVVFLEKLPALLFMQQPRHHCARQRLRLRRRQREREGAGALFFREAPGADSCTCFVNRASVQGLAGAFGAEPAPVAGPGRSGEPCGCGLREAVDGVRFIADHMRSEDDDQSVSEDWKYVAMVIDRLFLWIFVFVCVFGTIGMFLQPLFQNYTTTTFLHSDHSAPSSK
Sequence (P43681 whole entry): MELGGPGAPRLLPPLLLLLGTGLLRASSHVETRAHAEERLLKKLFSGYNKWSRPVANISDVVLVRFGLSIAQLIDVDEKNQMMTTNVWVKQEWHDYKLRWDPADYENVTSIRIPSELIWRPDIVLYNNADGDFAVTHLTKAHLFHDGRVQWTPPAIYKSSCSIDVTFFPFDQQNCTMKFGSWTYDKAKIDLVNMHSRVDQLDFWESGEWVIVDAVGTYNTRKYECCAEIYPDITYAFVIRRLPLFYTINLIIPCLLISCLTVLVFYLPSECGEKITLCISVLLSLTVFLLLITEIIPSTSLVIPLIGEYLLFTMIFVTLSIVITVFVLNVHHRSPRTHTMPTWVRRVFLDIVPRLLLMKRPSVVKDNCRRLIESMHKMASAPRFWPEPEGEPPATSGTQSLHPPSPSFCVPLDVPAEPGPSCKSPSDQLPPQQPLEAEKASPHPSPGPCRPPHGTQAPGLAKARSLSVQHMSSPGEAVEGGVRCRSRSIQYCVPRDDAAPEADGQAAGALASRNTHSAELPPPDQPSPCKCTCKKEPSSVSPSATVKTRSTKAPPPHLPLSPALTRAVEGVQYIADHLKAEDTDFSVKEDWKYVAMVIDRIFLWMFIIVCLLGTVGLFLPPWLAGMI
Threshold check on Activity: strictly below 70% is yes; on or above 70% is no.

Observe how each entry below is paired with its result.
# COMPOUND STRUCTURE, QUALITATIVE LABEL
rows = [
    ("N#Cc1cncc(N2C[C@@H]3CNC[C@@H]32)c1", "yes"),
    ("Clc1cncc(N2C[C@@H]3CN[C@@H]3C2)c1", "yes"),
    ("COc1cc(N2C[C@@H]3CN[C@@H]3C2)cnc1Br", "yes"),
]

Moving on to another compound below.
Consider the compound `COc1cncc(N2C[C@H]3CN[C@H]3C2)c1` . Is its Activity strictly less than 70%?
no

* * *

assay: Displacement of [3H]cytisine from neuronal nicotinic acetylcholine receptor in rat brain membrane; type: cell membranes
Mark T only when Ki stays strictly below 1 nM. Values equal to the cut-off are F.

Known results for molecules:
# COMPOUND STRUCTURE, QUALITATIVE LABEL
measured = [
    ("Cc1cc(N2C[C@H]3CNC[C@H]32)cnc1C", "F"),
    ("COc1cncc(N2C[C@H]3CN[C@H]3C2)c1", "T"),
    ("Brc1cncc(N2C[C@@H]3CN[C@@H]3C2)c1", "F"),
    ("N#Cc1cncc(N2C[C@H]3CNC[C@H]32)c1", "F"),
    ("Cc1cc(N2C[C@@H]3CN[C@@H]3C2)cnc1C", "F"),
]

Could you please tell me whether Ki recorded for `Clc1cc(N2C[C@@H]3CN[C@@H]3C2)cnc1Br` is less than 1 nM?
T

Does this molecule meet the criterion Ki < 1 nM? `Clc1cc(N2C[C@H]3CNC[C@H]32)cnc1Cl`
T

Consider `Clc1cncc(N2C[C@@H]3CN[C@@H]3C2)c1` . Does its Ki lie strictly below 1 nM?
F

# check: Ki < 1 nM for `Cc1cc(N2C[C@H]3CNC[C@H]32)cnc1Cl`
T

Check if Ki falls below 1 nM for `Cc1cc(N2C[C@@H]3CNC[C@@H]32)cnc1Cl` .
T

hey, is Ki for `COc1cncc(N2C[C@@H]3CNC[C@@H]32)c1` lower than 1 nM or not?
F

* * *

# EC50 per entry
target: Neuronal acetylcholine receptor; alpha4/beta2 (Homo sapiens, UniProt P17787+P43681); assay: Agonist activity at recombinant human alpha-4-beta-2 nAChR expressed in HEK293 cells assessed as induction of calcium influx by FLIPR assay; format: functional, cell-based; details: read-out: EC50
Reply numerically in µM, unit not repeated.

Solved entries (count: 10):
# COMPOUND STRUCTURE, OBSERVED
data = [
    ("Brc1cncc(N2C[C@@H]3CNC[C@@H]32)c1", 11.4),
    ("N#Cc1cncc(N2C[C@H]3CNC[C@H]32)c1", 5.9),
    ("Brc1cncc(N2C[C@H]3CN[C@H]3C2)c1", 1.1),
    ("Clc1ccc(N2C[C@@H]3CN[C@@H]3C2)cn1", 0.2),
    ("Brc1cc(N2C[C@H]3CNC[C@H]32)cnc1Br", 6.9),
    ("COc1cncc(N2C[C@@H]3CNC[C@@H]32)c1", 24.7),
    ("N#Cc1cncc(N2C[C@@H]3CNC[C@@H]32)c1", 11.4),
    ("COc1cncc(N2C[C@@H]3CN[C@@H]3C2)c1", 15.8),
    ("Brc1cncc(N2C[C@H]3CNC[C@H]32)c1", 4.4),
    ("Cc1cc(N2C[C@@H]3CN[C@@H]3C2)cnc1Cl", 0.3),
]

I have this molecule here, `Cc1cc(N2C[C@@H]3CNC[C@@H]32)cnc1Cl` , and I need its recorded EC50.
0.6

* * *

Quick list: pEC50 per entry.
target: Neuronal acetylcholine receptor; alpha4/beta2 (Homo sapiens, UniProt P17787+P43681); experiment: Agonist activity at recombinant human alpha-4-beta-2 nAChR expressed in HEK293 cells assessed as induction of calcium influx by FLIPR assay; type: functional, cell-based; conditions: read-out: EC50
Give only the number. pEC50 is defined as minus log10 of concentration in molar units.

These recorded examples may help you get a feel for the data.
# MOLECULE, OBSERVED
measured = [
    ("COc1cncc(N2C[C@H]3CNC[C@H]32)c1", 5.44),
    ("Cc1cncc(N2C[C@@H]3CNC[C@@H]32)c1", 4.98),
]

I am curious: what pEC50 value has been reported for `N#Cc1cc(N2C[C@H]3CNC[C@H]32)cnc1Br` ?
6.40

Quick check: pEC50 of `Cc1ncc(N2C[C@H]3CN[C@H]3C2)cc1C#N` ?
6.30

Consider the molecule `Cc1cc(N2C[C@H]3CN[C@H]3C2)cnc1C` and give its measured pEC50.
6.70

Record request: pEC50 value, item `Clc1cncc(N2C[C@H]3CNC[C@H]32)c1`
5.09

What value of measured pEC50 is listed for `Clc1ccc(N2C[C@H]3CN[C@H]3C2)cn1` ?
7.52

# query: pEC50 of entry `COc1cc(N2C[C@@H]3CN[C@@H]3C2)cnc1Br`
5.66

What does the data say about its pEC50? Entry: `c1cncc(N2C[C@H]3CNC[C@H]32)c1`
5.72

# pEC50 lookup, item Clc1cc(N2C[C@@H]3CN[C@@H]3C2)cnc1Cl [SOFINICLINE]
6.40

Reported pEC50, molecule `Cc1cc(N2C[C@H]3CNC[C@H]32)cnc1Cl` : ____
6.70

* * *

target: Neuronal acetylcholine receptor; alpha3/beta4 (Homo sapiens, UniProt P30926+P32297); assay: Agonist activity at recombinant human alpha3beta4 nAChR expressed in HEK293 cells assessed as induction of calcium influx by FLIPR assay relative to nicotine; assay type: functional, cell-based
MEASURED QUANTITY: Activity (%)
Just the number please, in %, no unit attached.

Below are worked cases with known answers.
# COMPOUND, UNIT SPEC, OBSERVED
data = [
    ("NC(=O)c1cc(N2C[C@H]3CNC[C@H]32)cnc1Br", "%", 88),
    ("CN1CCC[C@H]1c1cccnc1 [NICOTINE]", "%", 89),
    ("Clc1ccc(N2C[C@@H]3CNC[C@@H]32)cn1", "%", 94),
]

Requested read-out: Activity. Entry: `Clc1cc(N2C[C@H]3CNC[C@H]32)cnc1Cl`
92

Request the reported Activity associated with `COc1cncc(N2C[C@@H]3CN[C@@H]3C2)c1`
44

* * *

molecular target: Neuronal acetylcholine receptor; alpha3/beta4 (Homo sapiens, UniProt P30926+P32297); assay: Agonist activity at recombinant human alpha-3-beta-4 nAChR expressed in HEK293 cells assessed as induction of calcium influx by FLIPR assay; format: functional, cell-based; details: read-out: EC50
# Lookup of reported EC50 keyed by entry
Form entry: value (nM) — number only.

# COMPOUND STRUCTURE, EC50 (nM)
measured = [
    ("Cc1ncc(N2C[C@@H]3CN[C@@H]3C2)cc1C#N", 900),
    ("Clc1ccc(N2C[C@H]3CNC[C@H]32)cn1", 1100),
    ("Clc1ccc(N2C[C@@H]3CNC[C@@H]32)cn1", 1200),
]

Proceeding to the next molecule to report its EC50.
Name the recorded EC50 for `Brc1cc(N2C[C@H]3CNC[C@H]32)cnc1Br` .
1100

* * *

experiment: Displacement of [3H]cytisine from neuronal nicotinic acetylcholine receptor in rat brain membrane; assay type: cell membranes
Each entry below carries its reported Log Ki.
Give the value as a plain number.

# COMPOUND, MEASURED QUANTITY, OBSERVED
data = [
    ("Clc1ccc(N2C[C@H]3CNC[C@H]32)cn1", "Log Ki", -8.91),
    ("Cc1cncc(N2C[C@@H]3CNC[C@@H]32)c1", "Log Ki", -8.94),
    ("N#Cc1cncc(N2C[C@@H]3CNC[C@@H]32)c1", "Log Ki", -9.07),
    ("Clc1ccc(N2C[C@@H]3CN[C@@H]3C2)cn1", "Log Ki", -9.24),
    ("N#Cc1cncc(N2C[C@@H]3CN[C@@H]3C2)c1", "Log Ki", -8.77),
]

I am curious: what Log Ki value has been reported for `Clc1ccc(N2C[C@@H]3CNC[C@@H]32)cn1` ?
-8.9

Suppose we examine the compound `c1cncc(N2C[C@@H]3CNC[C@@H]32)c1` ; what Log Ki value has been reported?
-9.15

Looking for the measured Log Ki of `Clc1cc(N2C[C@@H]3CNC[C@@H]32)cnc1Cl` , can you help?
-8.93

Give the measured Log Ki of `Brc1cncc(N2C[C@@H]3CN[C@@H]3C2)c1` .
-8.84

Which Log Ki is listed for `Cc1ncc(N2C[C@@H]3CNC[C@@H]32)cc1C#N` ?
-9.18
